// provenance: PubChem BioAssay

Experiment: SK-BR-3 cell growth inhibitors, pilot screen, 24 h, human (AID 572);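 further: compound exposure lasted between 18 and 24 h rather than exactly 24 h; 100% = carrier-treated control wells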
Conditions: SK-BR-3 viability, CellTiter-Glo luminescence, at 10 µM, stronger effect = lower value
Peptide text beside a SMILES is read from it. * marks the point of attachment. Boc = CC(C)(C)OC(=O)*
Recorded Metric: viability (%)

Compound: CCCC(CCC)C(=O)NCCN1CCOCC1
Units Of Measure: %
Observed Result: 118

Compound: CCOC(=O)CNC(=O)CSc1nc(N(C)C)nc(N2CCOCC2)n1
Units Of Measure: %
Observed Result: 88

Compound: CC(=O)Nc1nc2c(c3c1c(=O)oc1ccccc13)CC(C)CC2 (stereo unspecified)
Units Of Measure: %
Observed Result: 123

Compound: Cc1ccc(N(CC(O)CN2CCCC2)S(=O)(=O)c2ccc(C)cc2)cc1 (stereo unspecified)
Units Of Measure: %
Observed Result: 132

Compound: CCOc1ccc(/C=N/n2cnnc2)cc1
Units Of Measure: %
Observed Result: 101

Compound: Cn1c(=O)c2c(nc(NCCCO)n2Cc2cccc(Br)c2)n(C)c1=O
Units Of Measure: %
Observed Result: 91

Compound: Cc1cc(NC(=O)CCCC(=O)Nc2ccc(F)cc2)no1
Units Of Measure: %
Observed Result: 101

Compound: COCc1nnc(SCC(=O)NC(C)c2ccccc2)n1-c1ccccc1 (stereo unspecified)
Units Of Measure: %
Observed Result: 84

Compound: CC(CN1CCCCC1)OC(=O)c1ccc2c(c1)OCO2 (stereo unspecified)
Units Of Measure: %
Observed Result: 104

Compound: Cc1c(NC(=O)c2ccc(=O)oc2)c(=O)n(-c2ccccc2)n1C
Units Of Measure: %
Observed Result: 96.5

Compound: COC(=O)c1cc(OC)c(OC)cc1NC(=O)CC1CCCCC1
Units Of Measure: %
Observed Result: 104

Compound: CCOC(=O)c1c(-c2ccc(C)o2)csc1NC(=O)CN1CCN(CC)CC1
Units Of Measure: %
Observed Result: 87

Compound: Cc1nc(C)n(C(C)CC(=O)O)n1 (stereo unspecified)
Units Of Measure: %
Observed Result: 103

Compound: C=CCC1(O)C(=O)Nc2ccccc21 (stereo unspecified)
Units Of Measure: %
Observed Result: 93

Compound: CCOC(=O)c1cc(CC)sc1NC(=O)COC
Units Of Measure: %
Observed Result: 104

Compound: c1cc2c(cc1C1CCCN1)OCCCO2 (stereo unspecified)
Units Of Measure: %
Observed Result: 103

Compound: CCn1c(SCc2cc(=O)[nH]c3ccccc23)nc2c1c(=O)n(C)c(=O)n2C
Units Of Measure: %
Observed Result: 95

Compound: Cc1cc(Cl)c(S(=O)(=O)Nc2ccc3c(c2)OCCO3)cc1OCC(N)=O
Units Of Measure: %
Observed Result: 78

Compound: Cc1cc(NC(=O)CSc2nc(CCC3CCCC3)nc3ccccc23)no1
Units Of Measure: %
Observed Result: 92

Compound: O=C(COC(=O)c1cnccn1)Nc1ccc2c(c1)OCO2
Units Of Measure: %
Observed Result: 130

Compound: CCC(Sc1nc2n[nH]c(C)c2c(=N)n1-c1cc(Cl)ccc1C)C(=O)N1CCOCC1 (stereo unspecified)
Units Of Measure: %
Observed Result: 92.5

Compound: O=C(CN1C(=O)c2ccccc2S1(=O)=O)Nc1ccc(S(=O)(=O)N2CCCCCC2)cc1
Units Of Measure: %
Observed Result: 110

Compound: Cc1ccc(S(=O)(=O)NC(=O)NN2CCCCCC2)cc1
Units Of Measure: %
Observed Result: 112

Compound: CC(C)Oc1cc2oc(=O)c3c(c2cc1Cl)CCC3
Units Of Measure: %
Observed Result: 66

Compound: CC(C)CC(NC(=O)OC(C)(C)C)C(=O)NC(C(=O)N1CCCC1C(N)=O)C(C)C (stereo not drawn) (Boc-Leu-Val-Pro-NH2; configuration not given here)
Units Of Measure: %
Observed Result: 103

Compound: CC(C)(C)c1ccc(-c2nnc(SCCC#N)n2C2CCCC2)cc1
Units Of Measure: %
Observed Result: 73.5

Compound: CCC(C)(C(=O)NC1CCCC1)N(Cc1cccs1)C(=O)Cc1cccs1 (stereo unspecified)
Units Of Measure: %
Observed Result: 122

Compound: CCOC(=O)c1sc2nc(N3CCCC3)c3c(c2c1N)CC(C)(C)OC3
Units Of Measure: %
Observed Result: 75.5

Compound: CNc1nnc(-c2cccc(N(C)C)c2)s1
Units Of Measure: %
Observed Result: 111

Compound: C=CCN(CC=C)C(=O)CN1C(=O)c2ccccc2C1=O
Units Of Measure: %
Observed Result: 125

Compound: COc1ccccc1N1CCN(Cc2nc(N)nc(Nc3ccc(C)c(Cl)c3)n2)CC1
Units Of Measure: %
Observed Result: 104

Compound: Cc1nnc(NC(=O)CSc2nnc(-c3ccc(S(=O)(=O)N4CCCC4)cc3)n2C)s1
Units Of Measure: %
Observed Result: 93

Compound: COc1ccc(N2CCN(Cc3cc(=O)oc4cc(C)c(Cl)c(C)c34)CC2)cc1
Units Of Measure: %
Observed Result: 93.5

Compound: CC(C)CCNC(=O)NC(=O)CSc1nnc(-c2ccccc2F)n1N
Units Of Measure: %
Observed Result: 94

Compound: CCCCN(Cc1cc2cc(OC)ccc2[nH]c1=O)C(=O)c1ccccn1
Units Of Measure: %
Observed Result: 102

Compound: O=C(NCN1CCCCC1)c1cccnc1
Units Of Measure: %
Observed Result: 134

###

The reader will find reported viability values listed item by item below.
Assay: HUVEC growth inhibition – cell-based, human, primary screen (AID 575);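 further: 100% = median of untreated cell wells with 0.1% DMSO on each plate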
Conditions: HUVEC proliferation, CellTiter-Glo luminescence, 72 h; at 10 µM; stronger effect = lower value
Recorded Metric: viability (%)

Compound: Cc1ccc(S(=O)(=O)c2cc3c(=O)n4ccccc4nc3n(CC3CCCO3)c2=N)cc1C (stereo not given)
Units Of Measure: %
Observed Result: 69.9
--
Compound: CCn1c(SCC(=O)Nc2ccc3c(c2)OCO3)nc2c(c1=O)SC(C)C2 (stereo not given)
Units Of Measure: %
Observed Result: 81
--
Compound: COc1ccc(CN(CC(=O)NCC2CCCO2)C(=O)CCC(=O)Nc2cc(C)on2)cc1 (stereo not given)
Units Of Measure: %
Observed Result: 95.1
--
Compound: CCN1C(=O)CC(N2CCC(Nc3ccc(F)cc3)CC2)C1=O (stereo not given)
Units Of Measure: %
Observed Result: 93.5
--
Compound: S=C(NCC1CCCO1)n1nnc2ccccc21 (stereo not given)
Units Of Measure: %
Observed Result: 66.2

###

Test: growth inhibitors of H69AR lung tumor, primary screen, human, duplicate replicates (AID 580);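 further: 100% = mean luminescence of untreated wells and 0% = no signal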
Settings: H69AR lung tumor cells viability, ATP luminescence, 72 h; at 10 µM
Calls of active or inactive are those of the source.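 Rule for the calls: active = viability at or under a set limit in both replicates, limit being median viability minus 3 SD (cut at about 48% in these data, passing the limit was not always enough); inconclusive = at or under the limit in just one replicate; inactive = at or above the limit in both replicates.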
Outcomes: active, inactive

Molecule: CCn1ncc(C2=NOC(C(=O)NCc3ccc(Cl)cc3)C2)c1C (stereo not given)
Class Name: active
--
Molecule: CCOc1ccccc1N1CCN(S(=O)(=O)c2cccc3nsnc23)CC1
Class Name: inactive
--
Molecule: C=CCn1c(SCC(=O)Nc2ccc3c(c2)OCO3)nc2ccccc2c1=O
Class Name: inactive
--
Molecule: COc1cccc(Nc2nc(=O)[nH]nc2C)c1
Class Name: inactive
--
Molecule: COc1cccc(OCc2nnc(SCC(=O)OCc3ccccc3)o2)c1
Class Name: inactive
--
Molecule: COc1ccc2c(=O)c3c(=O)n(Cc4ccco4)c(-c4cc(OC)c(OC)c(OC)c4)nc3oc2c1
Class Name: active
--
Molecule: CCC1CCCCN1c1nc(-c2ccncc2)nc2ccccc12 (stereo not given)
Class Name: active
--
Molecule: CCN(CC)CCCN1C(=O)C(O)=C(C(C)=O)C1c1cccc(OC)c1 (stereo not given)
Class Name: inactive
--
Molecule: COc1ccc(NC(=O)N(C2CCCCC2)C2CCN(C(C)C)CC2)c(OC)c1
Class Name: inactive
--
Molecule: CCOc1ccc(NC(=O)Cn2nnc(-c3ccccc3F)n2)cc1
Class Name: inactive

###

The reader will find reported viability values listed item by item below.
Assay: reversal of MRP1-mediated doxorubicin resistance, pilot screen, H69AR cells, doxorubicin co-treatment (AID 601)
Settings: H69AR cells + 2 uM doxorubicin, CellTiter-Glo, 72 h; measured here: viability with 2 uM doxorubicin; at 10 µM; stronger effect = lower value

Compound: CCCSc1ccc2nc(NC(=O)OC)[nH]c2c1
viability / %: 48.9
//
Compound: Cc1ccc(C(C(=O)NC2CCCCC2)N(C(=O)c2csnn2)C2CCCC2)o1 (stereo not drawn)
viability / %: 79.4
//
Compound: COc1ccccc1OC(=O)c1ccc(SC)cc1OC
viability / %: 91.4
//
Compound: O=C(CSc1ccccc1C(=O)NCCCN1CCCC1=O)NCc1ccco1
viability / %: 80
//
Compound: CCOC(=O)N(C)c1ccc(C(O)(C(F)(F)F)C(F)(F)F)cc1
viability / %: 97.1
//
Compound: CCc1ccc(NS(=O)(=O)c2ccc3[nH]cc(C(=O)N4CCCCC4)c(=O)c3c2)cc1
viability / %: 84
//
Compound: O=C(NCCC1=CCCCC1)C1CCN(S(=O)(=O)c2cnc[nH]2)CC1
viability / %: 88.1
//
Compound: CCOC(=O)C1CCCN(C(=O)Cc2ccc(OC)c(OC)c2)C1 (stereo not drawn)
viability / %: 91.8
